Data credit: patent US11613556B2

test-system: glutamate-activated channels of the GRIN1/2A subtype stably transfected in HEK 293 cells (Homo sapiens (Human), UniProt Q05586+Q12879)
Sequence (Q12879 whole entry, looked up, other chains not shown): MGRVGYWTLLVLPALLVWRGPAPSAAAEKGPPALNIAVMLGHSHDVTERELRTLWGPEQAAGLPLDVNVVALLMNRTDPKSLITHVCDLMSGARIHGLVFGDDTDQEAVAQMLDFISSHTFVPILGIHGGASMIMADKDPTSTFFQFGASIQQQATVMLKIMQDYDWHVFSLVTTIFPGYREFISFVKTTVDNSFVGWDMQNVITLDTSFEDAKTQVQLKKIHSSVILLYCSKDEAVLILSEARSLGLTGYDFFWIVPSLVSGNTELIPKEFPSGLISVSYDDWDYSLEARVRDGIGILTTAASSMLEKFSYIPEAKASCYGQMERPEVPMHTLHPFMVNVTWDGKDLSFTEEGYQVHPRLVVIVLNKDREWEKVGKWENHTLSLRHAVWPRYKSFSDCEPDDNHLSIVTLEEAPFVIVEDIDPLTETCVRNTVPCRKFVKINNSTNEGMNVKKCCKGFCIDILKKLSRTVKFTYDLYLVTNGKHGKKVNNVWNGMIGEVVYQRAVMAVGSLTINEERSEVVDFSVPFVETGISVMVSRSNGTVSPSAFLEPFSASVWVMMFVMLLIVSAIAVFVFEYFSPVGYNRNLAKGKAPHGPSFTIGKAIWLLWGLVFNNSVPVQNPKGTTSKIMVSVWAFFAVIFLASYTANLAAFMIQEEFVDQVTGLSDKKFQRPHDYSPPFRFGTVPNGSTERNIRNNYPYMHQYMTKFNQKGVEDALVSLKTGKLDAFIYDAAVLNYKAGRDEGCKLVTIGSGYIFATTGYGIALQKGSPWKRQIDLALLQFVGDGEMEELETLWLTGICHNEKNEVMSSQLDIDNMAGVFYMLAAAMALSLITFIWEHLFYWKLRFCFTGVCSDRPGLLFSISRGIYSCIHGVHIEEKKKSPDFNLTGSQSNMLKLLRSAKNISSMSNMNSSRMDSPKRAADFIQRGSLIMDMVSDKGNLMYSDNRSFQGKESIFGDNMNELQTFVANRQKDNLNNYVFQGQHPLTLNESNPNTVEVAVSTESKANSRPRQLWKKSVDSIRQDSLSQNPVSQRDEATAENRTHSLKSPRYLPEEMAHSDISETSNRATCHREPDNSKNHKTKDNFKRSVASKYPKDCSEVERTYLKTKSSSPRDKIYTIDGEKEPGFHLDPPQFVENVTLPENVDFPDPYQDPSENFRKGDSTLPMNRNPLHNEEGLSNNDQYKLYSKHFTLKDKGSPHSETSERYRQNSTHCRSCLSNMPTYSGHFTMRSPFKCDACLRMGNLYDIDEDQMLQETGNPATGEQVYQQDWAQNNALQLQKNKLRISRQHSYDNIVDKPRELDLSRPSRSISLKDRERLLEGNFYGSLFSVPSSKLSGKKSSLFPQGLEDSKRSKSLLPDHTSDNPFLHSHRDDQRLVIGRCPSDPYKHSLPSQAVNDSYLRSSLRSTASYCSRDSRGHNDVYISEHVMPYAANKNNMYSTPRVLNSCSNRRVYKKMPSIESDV
method: Automated patch-clamp system (QPatch HTX), percent potentiation at 1 μM
Format: cell-based
test-context: HEK293, 1 μM test compound, 300 μM NMDA with 8 μM glycine, HEK 293 GRIN1/2A, read-out: GluN2A PCA % potentiation at 1 μM
Protocol: NMDA potentiation in mammalian cells which expressed NMDA receptors was assessed using the automatic patch-clamp system can be used determine the NAM activity of compounds as described below. An whole cell patch-clamp system can be used determine the PAM activity of compounds as described below. Automated Patch-Clamp System (OPatch HTX): […]
property-label: activation at 1 µM

Q: Which activation at 1 µM reading was recorded for the compound C[C@@H]([C@H]1CC[C@H]2[C@@H]3CC[C@H]4C[C@](O)(C(F)(F)F)CC[C@]4(C)[C@H]3CC[C@]12C)[C@@H](C)O ?
A: -10 to 10%

Q: Which activation at 1 µM reading was recorded for the compound CC[C@]1(O)CC[C@@]2(C)[C@@H](CC[C@@H]3[C@@H]2CC[C@]2(C)[C@@H]([C@H](C)[C@H](O)CC4CCOCC4)CC[C@@H]32)C1 ?
A: -10 to 10%

Could you tell me activation at 1 µM for each of these compounds? They are listed below.
1. CC[C@]1(O)CC[C@@]2(C)[C@@H](CC[C@@H]3[C@@H]2CC[C@]2(C)[C@@H]([C@H](C)[C@H](O)C4CC4)CC[C@@H]32)C1
2. CC[C@H](O)[C@@H](C)[C@H]1CC[C@H]2[C@@H]3CC[C@H]4C[C@](O)(CC)CC[C@]4(C)[C@H]3CC[C@]12C

A:
["-10 to 10%", "-40 to -10%"]

Could you tell me activation at 1 µM for each of these compounds? They are listed below.
1. CCC[C@H](O)[C@@H](C)[C@H]1CC[C@H]2[C@@H]3CC[C@H]4C[C@](O)(CC)CC[C@]4(C)[C@H]3CC[C@]12C
2. CC[C@]1(O)CC[C@@]2(C)C(=CC[C@H]3[C@@H]4CC[C@H]([C@H](C)[C@H](O)CC5CCC(C)(C)CC5)[C@@]4(C)CC[C@@H]32)C1

A:
1. -40 to -10%
2. -10 to 10%

Could you tell me activation at 1 µM for each of these compounds? They are listed below.
1. CC[C@]1(O)CC[C@@]2(C)C(=CC[C@H]3[C@@H]4CC[C@H]([C@H](C)[C@H](O)C(F)(F)F)[C@@]4(C)CC[C@@H]32)C1
2. C[C@H]([C@H](C)O)[C@H]1CC[C@H]2[C@@H]3CC[C@H]4C[C@](O)(C(F)(F)F)CC[C@]4(C)[C@H]3CC[C@]12C

A:
1. -40 to -10%
2. -40 to -10%
